Ref: patent US20240132624A1

molecular target: T1, human FcRn/b2M (human, UniProt P61769 21-119, biotinylated); experiment: SPR pH 6.0;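 note: surface plasmon resonance kinetics at 25 °C, diluted periplasmic extracts injected over immobilized ligand surfaces, 120 s association then 600–3600 s dissociation, running buffer containing 150 mM NaCl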
T1 construct: bought recombinant biotinylated protein (ACRO FCM-H82W4 or Immunitrack ITF01); also called hFcRn; hFcRn/hb2M
property_label: koff (s⁻¹)

Completed entries (count: 6):
Documented koff of T0263018B11 T28N (VHH, name in Kabat numbering, FLAG3-His6 tagged) VHH: EVQLVESGGGVVQPGGSLRLSCAASGFNFSSYAMYWVRQAPGKGLEWVSAISSGGGSTDYADSVKGRFTISRDNSKNTLYLQMNSLRPEDTALYYCAADTLYTSLTWYSYWGQGTLVTVSS : 0.0019

T0263018B11 T57V (VHH, name in Kabat numbering, FLAG3-His6 tagged) VHH: EVQLVESGGGVVQPGGSLRLSCAASGFTFSSYAMYWVRQAPGKGLEWVSAISSGGGSVDYADSVKGRFTISRDNSKNTLYLQMNSLRPEDTALYYCAADTLYTSLTWYSYWGQGTLVTVSS has a reported koff of 0.00077

Record T0263018B11 S56E (VHH, name in Kabat numbering, FLAG3-His6 tagged) VHH: EVQLVESGGGVVQPGGSLRLSCAASGFTFSSYAMYWVRQAPGKGLEWVSAISSGGGETDYADSVKGRFTISRDNSKNTLYLQMNSLRPEDTALYYCAADTLYTSLTWYSYWGQGTLVTVSS . Reported koff: 0.0026

koff measured on T0263018B11 F29Q (VHH, name in Kabat numbering, FLAG3-His6 tagged) VHH: EVQLVESGGGVVQPGGSLRLSCAASGFTQSSYAMYWVRQAPGKGLEWVSAISSGGGSTDYADSVKGRFTISRDNSKNTLYLQMNSLRPEDTALYYCAADTLYTSLTWYSYWGQGTLVTVSS = 0.0021

In plain terms, T0263018B11 G55D (VHH, name in Kabat numbering, FLAG3-His6 tagged) VHH: EVQLVESGGGVVQPGGSLRLSCAASGFTFSSYAMYWVRQAPGKGLEWVSAISSGGDSTDYADSVKGRFTISRDNSKNTLYLQMNSLRPEDTALYYCAADTLYTSLTWYSYWGQGTLVTVSS has a documented koff of 0.0017

Notebook: T0263018B11 S52aT (VHH, name in Kabat numbering, FLAG3-His6 tagged) VHH: EVQLVESGGGVVQPGGSLRLSCAASGFTFSSYAMYWVRQAPGKGLEWVSAISTGGGSTDYADSVKGRFTISRDNSKNTLYLQMNSLRPEDTALYYCAADTLYTSLTWYSYWGQGTLVTVSS , koff read as 0.0016

P. T0263018B11 Y100dF (VHH, name in Kabat numbering, FLAG3-His6 tagged) VHH: EVQLVESGGGVVQPGGSLRLSCAASGFTFSSYAMYWVRQAPGKGLEWVSAISSGGGSTDYADSVKGRFTISRDNSKNTLYLQMNSLRPEDTALYYCAADTLYTSLTWFSYWGQGTLVTVSS
Q. T0263018B11 S101Q (VHH, name in Kabat numbering, FLAG3-His6 tagged) VHH: EVQLVESGGGVVQPGGSLRLSCAASGFTFSSYAMYWVRQAPGKGLEWVSAISSGGGSTDYADSVKGRFTISRDNSKNTLYLQMNSLRPEDTALYYCAADTLYTSLTWYQYWGQGTLVTVSS
Prompt: Which one would you say has the larger koff value: P , or Q ? // return label of chosen record
Response: P

A. T0263018B11 S31N (VHH, name in Kabat numbering, FLAG3-His6 tagged) VHH: EVQLVESGGGVVQPGGSLRLSCAASGFTFSNYAMYWVRQAPGKGLEWVSAISSGGGSTDYADSVKGRFTISRDNSKNTLYLQMNSLRPEDTALYYCAADTLYTSLTWYSYWGQGTLVTVSS
B. T0263018B11 S101W (VHH, name in Kabat numbering, FLAG3-His6 tagged) VHH: EVQLVESGGGVVQPGGSLRLSCAASGFTFSSYAMYWVRQAPGKGLEWVSAISSGGGSTDYADSVKGRFTISRDNSKNTLYLQMNSLRPEDTALYYCAADTLYTSLTWYWYWGQGTLVTVSS
Prompt: Which of the two items, A and B , has the greater recorded koff? # reply format: chosen label
Response: A

1. T0263018B11 S56H (VHH, name in Kabat numbering, FLAG3-His6 tagged) VHH: EVQLVESGGGVVQPGGSLRLSCAASGFTFSSYAMYWVRQAPGKGLEWVSAISSGGGHTDYADSVKGRFTISRDNSKNTLYLQMNSLRPEDTALYYCAADTLYTSLTWYSYWGQGTLVTVSS
2. T0263018B11 G26N (VHH, name in Kabat numbering, FLAG3-His6 tagged) VHH: EVQLVESGGGVVQPGGSLRLSCAASNFTFSSYAMYWVRQAPGKGLEWVSAISSGGGSTDYADSVKGRFTISRDNSKNTLYLQMNSLRPEDTALYYCAADTLYTSLTWYSYWGQGTLVTVSS
Prompt: Determine, for 1 and 2 , which has the greater value of koff. Respond using the label that marks the chosen record.
Response: 1

1. T0263018B11 A33G (VHH, name in Kabat numbering, FLAG3-His6 tagged) VHH: EVQLVESGGGVVQPGGSLRLSCAASGFTFSSYGMYWVRQAPGKGLEWVSAISSGGGSTDYADSVKGRFTISRDNSKNTLYLQMNSLRPEDTALYYCAADTLYTSLTWYSYWGQGTLVTVSS
2. T0263018B11 F29V (VHH, name in Kabat numbering, FLAG3-His6 tagged) VHH: EVQLVESGGGVVQPGGSLRLSCAASGFTVSSYAMYWVRQAPGKGLEWVSAISSGGGSTDYADSVKGRFTISRDNSKNTLYLQMNSLRPEDTALYYCAADTLYTSLTWYSYWGQGTLVTVSS
Prompt: Of 1 versus 2 , which is the one with smaller reported koff? Write down the label of the entry you select.
Response: 1
